read-out: Interleukin-8 (IL8), CXCL8 (gene 3576); assay: BSK_SAg_IL8: BioMAP Diversity Plus: SAg Assay for Interleukin-8 (IL8) Biomarker Activity (AID 2283094); settings: primary human HUVEC with PBMC; actives raise or lower the signal
Active and inactive are the calls of the source. How the source made its calls: active means hit-call score of the fitted dose curve at least 0.9, where 1 is the maximum; inactive means score below 0.9.
Mark one answer only. Choices: active, inactive

[[record]]
compound = "CC(C)N1C(=O)c2ccccc2NS1(=O)=O"
class_name = "inactive"

[[record]]
compound = "CSC(=O)c1c(C(F)F)nc(C(F)(F)F)c(C(=O)SC)c1CC(C)C"
class_name = "active"

[[record]]
compound = "CC1(C)CCC(=Cc2ccc(Cl)cc2)C1(O)Cn1cncn1 (stereo not drawn)"
class_name = "inactive"

[[record]]
compound = "C=CCOC(=O)C(C)(C)OC(=O)c1cc(-n2c(=O)cc(C(F)(F)F)n(C)c2=O)ccc1Cl"
class_name = "inactive"

[[record]]
compound = "COC(=O)NS(=O)(=O)c1ccc(N)cc1"
class_name = "inactive"


Then there is this compound:
Request: Hi team, can someone confirm the assay call for "O=C(O)c1c(Cl)ccc2cc(Cl)cnc12" ?
Response: inactive

###

assay: CCTE_Shafer_MEA_acute_cross_correlation_area: CCTE's Neural Acute Assay for Area of Cross Correlation, Shafer Lab (AID 2284024);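 further: area under pooled inter-electrode spike cross-correlation near zero lag as percent change from own baseline; curves fitted for loss of cross-correlation area so actives lower synchrony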
Calls of active or inactive are those of the source. How the source made its calls: active means hit-call score of the fitted dose curve at least 0.9, where 1 is the maximum; inactive means score below 0.9.
Mark one answer only. Choices: label 1 = active, label 0 = inactive

Solved entries (count: 10):
[[record]]
compound = "COC(=O)N(C(=O)N1CO[C@@]2(C(=O)OC)Cc3cc(Cl)ccc3C2=N1)c1ccc(OC(F)(F)F)cc1"
class_name = "label 0"

[[record]]
compound = "O=C(Nc1ccccc1-c1ccc(Cl)cc1)c1cccnc1Cl"
class_name = "label 0"

[[record]]
compound = "CC(C)N1C(=O)c2ccccc2NS1(=O)=O"
class_name = "label 0"

[[record]]
compound = "CO/N=C(/C1=NOCCO1)c1ccccc1Oc1ncnc(Oc2ccccc2Cl)c1F"
class_name = "label 0"

[[record]]
compound = "CC1(C)CCC(=Cc2ccc(Cl)cc2)C1(O)Cn1cncn1 (centres undefined)"
class_name = "label 0"

[[record]]
compound = "CC(C)N1C(=O)N(c2ccccc2)CSC1=NC(C)(C)C"
class_name = "label 0"

[[record]]
compound = "CCCC(=NOCC)C1=C(O)CC(CC(C)SCC)CC1=O (centres undefined)"
class_name = "label 0"

[[record]]
compound = "CCOc1cc(C(C)(C)C)ccc1C1COC(c2c(F)cccc2F)=N1 (centres undefined)"
class_name = "label 0"

[[record]]
compound = "CN/C(=N\\[N+](=O)[O-])NCc1cnc(Cl)s1"
class_name = "label 1"

[[record]]
compound = "Clc1nc(Cl)nc(Nc2ccccc2Cl)n1"
class_name = "label 0"


Then there is this compound:
Request: Hi team, can someone confirm the assay call for "COP(=S)(OC)SCn1nnc2ccccc2c1=O" ?
Response: label 0

###

assay: ACEA_ER_80hr: ACEA Biosciences xCELLigence Real-Time Cell Analysis on Estrogen Receptor Agonism for Proliferation (AID 2282667); settings: T47D proliferation, impedance (xCELLigence), 80 h
Inconclusive results are not listed. Calls of active or inactive are those of the source. Rule for the calls: active = hit-call score of the fitted dose curve at least 0.9, where 1 is the maximum; inconclusive = response in the unintended direction; inactive = score below 0.9.
Mark one answer only. Choices: Yes (active), No (inactive)

[[record]]
molecule = "COC(=O)c1c(C(F)F)nc(C(F)(F)F)c(C2=NCCS2)c1CC(C)C"
class_name = "No"

[[record]]
molecule = "CCSC(=O)N1CCCCCC1"
class_name = "No"

[[record]]
molecule = "COP(=S)(OC)Oc1ccc([N+](=O)[O-])c(C)c1"
class_name = "No"

[[record]]
molecule = "CSC(=O)c1c(C(F)F)nc(C(F)(F)F)c(C(=O)SC)c1CC(C)C"
class_name = "No"

[[record]]
molecule = "CCCCC(O)(Cn1cncn1)c1ccc(Cl)cc1Cl (centres undefined)"
class_name = "No"


Request: Hi team, can someone confirm the assay call for CCCN(CC)CC1COC2(CCC(C(C)(C)C)CC2)O1 (centres undefined) ?
Response: No

Request: Proceed to "OC(c1ccc(Cl)cc1)(c1ccc(Cl)cc1)C(Cl)(Cl)Cl"
Response: No

Request: Proceed to "CCOc1nc(F)cc2nc(S(=O)(=O)Nc3c(Cl)cccc3Cl)nn12"
Response: No

Request: Proceed to "CO/N=C(/C1=NOCCO1)c1ccccc1Oc1ncnc(Oc2ccccc2Cl)c1F"
Response: Yes

Request: Proceed to COCc1cnc(C2=NC(C)(C(C)C)C(=O)N2)c(C(=O)O)c1 (centres undefined)
Response: No

Request: Proceed to "Cc1cc(C)nc(Nc2ccccc2)n1"
Response: No

Request: Proceed to "CS(=O)(=O)c1ccc(C(=O)C2C(=O)CCCC2=O)c([N+](=O)[O-])c1"
Response: No

###

test: BSK_hDFCGF_SRB: Viability Assessment in the BioMAP Diversity Plus: hDFCGF Assay (AID 2283061); conditions: primary human foreskin fibroblasts;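 further: cells exposed to compound for 24 h before the read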
The source made the active and inactive calls. Rule for the calls: active = hit-call score of the fitted dose curve at least 0.9, where 1 is the maximum; inactive = score below 0.9.
Mark one answer only. Choices: t = active, f = inactive

Solved entries (count: 5):
[[record]]
compound = "CN/C(=N\\[N+](=O)[O-])NCc1cnc(Cl)s1"
class_name = "f"

[[record]]
compound = "O=C(O)c1c(Cl)ccc2cc(Cl)cnc12"
class_name = "f"

[[record]]
compound = "CCCN(CC)CC1COC2(CCC(C(C)(C)C)CC2)O1 (stereo not drawn)"
class_name = "f"

[[record]]
compound = "CCOc1cc(C(C)(C)C)ccc1C1COC(c2c(F)cccc2F)=N1 (stereo not drawn)"
class_name = "t"

[[record]]
compound = "COP(=S)(OC)Oc1ccc([N+](=O)[O-])c(C)c1"
class_name = "f"


Request: Hi team, can someone confirm the assay call for "CO/N=C(/C1=NOCCO1)c1ccccc1Oc1ncnc(Oc2ccccc2Cl)c1F" ?
Response: f

Request: Proceed to "CN=C=S"
Response: f

Request: Proceed to "Clc1cccc(C(Cl)(Cl)Cl)n1"
Response: f

Request: Proceed to "COc1ccc(-c2ccccc2)cc1NNC(=O)OC(C)C"
Response: f

Request: Proceed to "CCSC(=O)N1CCCCCC1"
Response: f

Request: Proceed to CCN(CC)C(=O)C(C)Oc1cccc2ccccc12 (stereo not drawn)
Response: f

Request: Proceed to "CSC(=O)c1c(C(F)F)nc(C(F)(F)F)c(C(=O)SC)c1CC(C)C"
Response: f

Request: Proceed to "CCN(CC)c1nc(C)cc(OP(=S)(OC)OC)n1"
Response: f

###

test: APR_HepG2_CellCycleArrest_24hr: Apredica 24-hour HepG2 Assay for Cell Cycle Arrest (AID 2282905); details: imaging, actives raise or lower the signal;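 further: cell cycle arrest scored as ratio of 2N to 4N nuclear DNA content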
Activity calls are given as the source filed them. How the source made its calls: active means hit-call score of the fitted dose curve at least 0.9, where 1 is the maximum; inactive means score below 0.9.
Mark one answer only. Choices: active, inactive

Solved entries (count: 3):
[[record]]
molecule = "C=C(C)CN(CC)c1c([N+](=O)[O-])cc(C(F)(F)F)cc1[N+](=O)[O-]"
class_name = "inactive"

[[record]]
molecule = "CC1(C)C(C=C(Cl)Cl)C1C(=O)OC(C#N)c1cccc(Oc2ccccc2)c1 (stereo not given)"
class_name = "active"

[[record]]
molecule = "N#Cc1c[nH]cc1-c1cccc2c1OC(F)(F)O2"
class_name = "active"


Request: Hi team, can someone confirm the assay call for "O=C(O)c1c(Cl)ccc2cc(Cl)cnc12" ?
Response: inactive

Request: Proceed to COCC(C)N(C(=O)CCl)c1c(C)csc1C (stereo not given)
Response: active

Request: Proceed to "CO/N=C(/C1=NOCCO1)c1ccccc1Oc1ncnc(Oc2ccccc2Cl)c1F"
Response: inactive

Request: Proceed to CCC(C)n1c(=O)[nH]c(C)c(Br)c1=O (stereo not given)
Response: inactive

Request: Proceed to O=C1C2CC=CCC2C(=O)N1SC(Cl)(Cl)Cl (stereo not given)
Response: active

Request: Proceed to "Nc1c(Cl)c(Cl)nc(C(=O)O)c1Cl"
Response: inactive

Request: Proceed to "N#Cc1c(Cl)cccc1Cl"
Response: inactive

Request: Proceed to "C=CCOC(=O)C(C)(C)OC(=O)c1cc(-n2c(=O)cc(C(F)(F)F)n(C)c2=O)ccc1Cl"
Response: inactive

Request: Proceed to "COC(=O)NS(=O)(=O)c1ccc(N)cc1"
Response: inactive

Request: Proceed to "CSC(=O)c1c(C(F)F)nc(C(F)(F)F)c(C(=O)SC)c1CC(C)C"
Response: inactive

Request: Proceed to "COC(=O)N(C(=O)N1CO[C@@]2(C(=O)OC)Cc3cc(Cl)ccc3C2=N1)c1ccc(OC(F)(F)F)cc1"
Response: inactive

Request: Proceed to CCCCC(C#N)(Cn1cncn1)c1ccc(Cl)cc1 (stereo not given)
Response: inactive

Request: Proceed to "COP(=S)(OC)Oc1ccc([N+](=O)[O-])c(C)c1"
Response: inactive

Request: Proceed to "CCNC(=O)NC(=O)C(C#N)=NOC"
Response: inactive

Request: Proceed to CC(C)C1(C)N=C(c2ncccc2C(=O)O)NC1=O (stereo not given)
Response: inactive

Request: Proceed to COCc1cnc(C2=NC(C)(C(C)C)C(=O)N2)c(C(=O)O)c1 (stereo not given)
Response: inactive

Request: Proceed to "N#CN=C1SCCN1Cc1ccc(Cl)nc1"
Response: inactive
